Biological target: PTP1B (GST-PTP1B) (Homo sapiens, UniProt P18031)
Sequence (P18031 1-435): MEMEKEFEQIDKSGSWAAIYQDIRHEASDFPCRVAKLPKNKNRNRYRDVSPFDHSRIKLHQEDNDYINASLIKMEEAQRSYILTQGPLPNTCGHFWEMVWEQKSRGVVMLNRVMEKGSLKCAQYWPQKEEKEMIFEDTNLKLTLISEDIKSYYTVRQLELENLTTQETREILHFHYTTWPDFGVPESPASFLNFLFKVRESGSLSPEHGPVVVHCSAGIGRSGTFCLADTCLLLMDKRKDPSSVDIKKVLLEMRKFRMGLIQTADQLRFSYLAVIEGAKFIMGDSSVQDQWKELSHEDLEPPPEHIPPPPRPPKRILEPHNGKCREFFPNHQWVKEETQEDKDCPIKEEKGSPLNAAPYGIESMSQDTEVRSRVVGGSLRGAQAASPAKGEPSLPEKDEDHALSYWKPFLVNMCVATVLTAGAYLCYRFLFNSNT
Assay: PTP1B inhibition, colorimetric pNPP assay
Type: biochemical
Settings: pNPP assay, tested at 20 μg/mL
MEASURED PROPERTY: PTP1B inhibitory activity (in words)

- MOLECULE SMILES: "O=C(O)C(=O)Nc1ccc(C2Nc3cccc4cccc(c34)N2)cc1"
  VALUE OBSERVED: "no activity"
- MOLECULE SMILES: "O=C(O)CCCCOc1ccc(C2Nc3cccc4cccc(c34)N2)cc1"
  VALUE OBSERVED: "no inhibitory activity"
- MOLECULE SMILES: "O=C(O)CCC(=O)Nc1ccc(C2Nc3cccc4cccc(c34)N2)cc1"
  VALUE OBSERVED: "no activity"
- MOLECULE SMILES: "CC(C)(C)OC(=O)NCCC(=O)Nc1ccc(C2Nc3cccc4cccc(c34)N2)cc1"
  VALUE OBSERVED: "no inhibitory activity"
- MOLECULE SMILES: "O=C(O)CCCOc1ccc(C2Nc3cccc4cccc(c34)N2)cc1"
  VALUE OBSERVED: "no inhibitory activity"
- MOLECULE SMILES: "NCCC(=O)Nc1ccc(C2Nc3cccc4cccc(c34)N2)cc1"
  VALUE OBSERVED: "no inhibitory activity"

###

molecular target: PTP1B (GST-PTP1B) (Homo sapiens, UniProt P18031); assay: PTP1B inhibition, colorimetric pNPP assay; format: biochemical; settings: PTP1B, pNPP substrate, compound at 20 μg/mL
MEASURED PROPERTY: inhibition at 20 µg/mL (%)

- MOLECULE: "O=C(O)CCCCCNC(=O)c1ccc(C2Nc3cccc4cccc(c34)N2)nc1 [Compound 49]"
  MEASURED PROPERTY: "inhibition at 20 µg/mL"
  VALUE OBSERVED: 99.4
- MOLECULE: "O=C(O)CCCCOc1ccc(C2Nc3cccc4cccc(c34)N2)cc1 [Compound 25]"
  MEASURED PROPERTY: "inhibition at 20 µg/mL"
  VALUE OBSERVED: 32.1
- MOLECULE: "COC(=O)CCCNC(=O)c1ccc(C2Nc3cccc4cccc(c34)N2)nc1 [Compound 43]"
  MEASURED PROPERTY: "inhibition at 20 µg/mL"
  VALUE OBSERVED: 4.67
- MOLECULE: "NCCC(=O)Nc1ccc(C2Nc3cccc4cccc(c34)N2)cc1 [Compound 35]"
  MEASURED PROPERTY: "inhibition at 20 µg/mL"
  VALUE OBSERVED: 0.29
- MOLECULE: "CCOC(=O)CCCCNC(=O)c1ccc(C2Nc3cccc4cccc(c34)N2)nc1 [Compound 44]"
  MEASURED PROPERTY: "inhibition at 20 µg/mL"
  VALUE OBSERVED: 4.74
- MOLECULE: "O=C(O)CCCCNC(=O)c1ccc(C2Nc3cccc4cccc(c34)N2)nc1 [Compound 48]"
  MEASURED PROPERTY: "inhibition at 20 µg/mL"
  VALUE OBSERVED: 91.5
- MOLECULE: "Brc1ccccc1C1Nc2cccc3cccc(c23)N1 [Compound 4]"
  MEASURED PROPERTY: "inhibition at 20 µg/mL"
  VALUE OBSERVED: 17.5
- MOLECULE: "CCOC(=O)CC(=O)Nc1ccc(C2Nc3cccc4cccc(c34)N2)cc1 [Compound 27]"
  MEASURED PROPERTY: "inhibition at 20 µg/mL"
  VALUE OBSERVED: 1.68
- MOLECULE: "COC(=O)c1ccc(C2Nc3cccc4cccc(c34)N2)nc1 [Compound 40]"
  MEASURED PROPERTY: "inhibition at 20 µg/mL"
  VALUE OBSERVED: 6.4

###

MEASURED PROPERTY: melting point

- COMPOUND: "CCOC(=O)CC(=O)Nc1ccc(C2Nc3cccc4cccc(c34)N2)cc1 [Compound 27]"
  VALUE OBSERVED: "158.2 to 160.7 °C"
- COMPOUND: "O=C(O)CCCNC(=O)c1ccc(C2Nc3cccc4cccc(c34)N2)cc1 [Compound 17]"
  VALUE OBSERVED: "99.7 to 103.3 °C"
- COMPOUND: "CCOC(=O)CCC(=O)Nc1ccc(C2Nc3cccc4cccc(c34)N2)cc1 [Compound 28]"
  VALUE OBSERVED: "165.8 to 170.9 °C"
- COMPOUND: "O=C(O)CCCNC(=O)c1ccc(C2Nc3cccc4cccc(c34)N2)nc1 [Compound 47]"
  VALUE OBSERVED: "95.3 to 99 °C"
- COMPOUND: "CCOC(=O)CCCC(=O)Nc1ccc(C2Nc3cccc4cccc(c34)N2)cc1 [Compound 29]"
  VALUE OBSERVED: "139.9 to 142.5 °C"

###

target: SHP-1 (Homo sapiens, UniProt P29350)
Sequence (P29350 whole entry): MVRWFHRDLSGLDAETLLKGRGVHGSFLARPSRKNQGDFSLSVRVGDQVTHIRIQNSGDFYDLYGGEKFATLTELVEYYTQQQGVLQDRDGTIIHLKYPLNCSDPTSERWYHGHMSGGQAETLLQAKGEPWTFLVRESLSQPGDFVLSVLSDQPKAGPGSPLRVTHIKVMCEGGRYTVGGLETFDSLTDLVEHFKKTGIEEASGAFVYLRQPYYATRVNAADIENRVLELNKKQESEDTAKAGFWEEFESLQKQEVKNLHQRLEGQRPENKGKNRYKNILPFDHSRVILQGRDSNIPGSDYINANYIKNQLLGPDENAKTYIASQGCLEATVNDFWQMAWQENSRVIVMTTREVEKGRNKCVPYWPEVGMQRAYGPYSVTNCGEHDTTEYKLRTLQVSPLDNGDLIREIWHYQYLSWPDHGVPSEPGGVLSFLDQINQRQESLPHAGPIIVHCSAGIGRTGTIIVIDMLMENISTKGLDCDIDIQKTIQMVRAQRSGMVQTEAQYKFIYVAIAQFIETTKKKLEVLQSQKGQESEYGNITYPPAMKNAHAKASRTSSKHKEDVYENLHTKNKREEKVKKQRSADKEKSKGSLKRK
pIC50: −log10 of the molar value.
MEASURED PROPERTY: pIC50

- MOLECULE SMILES: "O=C(O)c1ccc(C2Nc3cccc4cccc(c34)N2)cc1"
  MEASURED PROPERTY: "pIC50"
  VALUE OBSERVED: 4.63

###

- COMPOUND: "O=C(O)CC(=O)Nc1ccc(C2Nc3cccc4cccc(c34)N2)cc1"
  melting point: "221.3 to 223.4 °C"
- COMPOUND: "N#Cc1cc(C2Nc3cccc4cccc(c34)N2)ccc1F"
  melting point: "204.4 to 208.4 °C"
- COMPOUND: "Brc1cccc(C2Nc3cccc4cccc(c34)N2)c1"
  melting point: "161.7 to 163.3 °C"
- COMPOUND: "O=C(O)CCCC(=O)Nc1ccc(C2Nc3cccc4cccc(c34)N2)cc1"
  melting point: "> 265 °C"
- COMPOUND: "O=C(O)C1CCCN1C(=O)c1ccc(C2Nc3cccc4cccc(c34)N2)cc1 (stereo not drawn)"
  melting point: "233.1 to 234.3 °C"
- COMPOUND: "CCOC(=O)CCCCCNC(=O)c1ccc(C2Nc3cccc4cccc(c34)N2)nc1"
  melting point: "119.3 to 123.8 °C"
- COMPOUND: "NCCC(=O)Nc1ccc(C2Nc3cccc4cccc(c34)N2)cc1"
  melting point: "239.7 to 241.2 °C"
- COMPOUND: "Nc1ccc(C2Nc3cccc4cccc(c34)N2)cc1"
  melting point: "166.4 to 171.9 °C"
- COMPOUND: "O=C(O)CCCCNC(=O)c1ccc(C2Nc3cccc4cccc(c34)N2)nc1"
  melting point: "117.1 to 120.3 °C"

###

Target: TCPTP (GST-TCPTP) (Homo sapiens, UniProt P17706)
Sequence (P17706 1-415): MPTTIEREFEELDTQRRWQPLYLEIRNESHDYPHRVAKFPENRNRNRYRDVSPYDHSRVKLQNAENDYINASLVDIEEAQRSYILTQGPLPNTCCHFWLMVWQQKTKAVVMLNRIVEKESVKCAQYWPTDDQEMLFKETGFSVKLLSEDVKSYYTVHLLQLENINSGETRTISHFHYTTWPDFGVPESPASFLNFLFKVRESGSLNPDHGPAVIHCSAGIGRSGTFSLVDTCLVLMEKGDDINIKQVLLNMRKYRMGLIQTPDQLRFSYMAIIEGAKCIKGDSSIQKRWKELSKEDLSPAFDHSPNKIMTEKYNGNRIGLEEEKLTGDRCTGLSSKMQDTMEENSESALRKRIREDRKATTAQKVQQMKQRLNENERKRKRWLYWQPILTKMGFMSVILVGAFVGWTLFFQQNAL
pIC50: −log10 of the molar value.
Quick reference for pIC50 among some compounds

- MOLECULE SMILES: "O=C(O)c1ccc(C2Nc3cccc4cccc(c34)N2)cc1"
  pIC50: 5.32
- MOLECULE SMILES: "O=C(O)CCCCCNC(=O)c1ccc(C2Nc3cccc4cccc(c34)N2)nc1"
  pIC50: 5.91
- MOLECULE SMILES: "O=C(O)CNC(=O)c1ccc(C2Nc3cccc4cccc(c34)N2)nc1"
  pIC50: 5.64
